Molecular target: human full length HSD11 β 1 (Homo sapiens, UniProt P28845)
Construct: transient expression of human full length HSD11 β 1 expression vector; host or cells: CHO cells (transient transfection)
Sequence (P28845 whole entry): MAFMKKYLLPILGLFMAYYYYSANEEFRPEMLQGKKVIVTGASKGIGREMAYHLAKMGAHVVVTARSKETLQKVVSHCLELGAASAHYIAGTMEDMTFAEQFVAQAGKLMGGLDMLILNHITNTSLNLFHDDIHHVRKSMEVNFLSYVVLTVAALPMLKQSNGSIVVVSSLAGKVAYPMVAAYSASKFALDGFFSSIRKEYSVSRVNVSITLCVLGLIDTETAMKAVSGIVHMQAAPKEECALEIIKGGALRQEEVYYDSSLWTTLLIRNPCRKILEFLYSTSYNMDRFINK
Test: In Vitro HSD11β1 Inhibition Assay
Format: cell-based
Settings: CHO cells transiently expressing human HSD11β1; 200 nM cortisone+500 uM NADPH overnight; cortisone to cortisol by LC/MS-MS; read-out: 11βHSD1 (IC50)
Procedure: In Vitro HSD11β1 Inhibition Assay: CHO cells were maintained in Dulbecco's modified Eagle's medium/nutrient mixture F-12 containing 5% fetal bovine serum (v/v) and 2 mM glutamine. Cells were cultured at 37° C. with 5% CO2. […] The enzymatic activity or inhibition of enzyme activity was measured by estimating the conversion of cortisone to cortisol by LC/MS-MS method. The IC50 in nM was calculated from an 8 point log scale of concentration versus inhibition.
observed_property: IC50

# molecule, recorded_value
measured = [
    ("N#C/C(=C\\c1c[nH]c2ccccc12)C(=O)N1CCCC2CCCCC21 (centres unmarked)", "> 250 nM"),
    ("CC(CC(=O)N1CCCC2C(C(=O)O)CCCC21)c1c[nH]c2cccc(-c3ccco3)c12 (centres unmarked) [Compound 215]", "< 100 nM"),
    ("Cc1cccc2c1c(C(C)CC(=O)N1CCCC3C(C(=O)O)CCCC31)cn2C (centres unmarked)", "> 250 nM"),
    ("Cn1cc(C(C)(C)C(=O)N2CCCC3CCCCC32)c2ccccc21 (centres unmarked)", "> 250 nM"),
]

// query Fill in: IC50 of CC(CC(=O)N1CCC(CC(=O)O)C2CCCCC21)c1c[nH]c2cccc(C3CC3)c12 (centres unmarked) is ___
// result > 250 nM

// query Fill in: IC50 of CC12CCCCC1N(C(=O)CCc1c[nH]c3ccccc13)CCC2 (single isomer, unassigned) [Compound 55] is ___
// result < 100 nM

// query Fill in: IC50 of CC(CC(=O)N1CCCC2(CO)CCCCC12)c1c[nH]c2ccccc12 (centres unmarked) is ___
// result > 250 nM

// query Fill in: IC50 of O=C(O)C1CC2CCCCC2N(C(=O)CC(c2ccccc2)c2c[nH]c3cc(F)ccc23)C1 (centres unmarked) is ___
// result > 250 nM

* * *

Biological target: human full length HSD11 β 1 (Homo sapiens, UniProt P28845)
Construct: transient expression of human full length HSD11 β 1 expression vector; host or cells: CHO cells (transient transfection)
Assay: In Vitro HSD11β1 Inhibition Assay
Type: cell-based
Settings: CHO cells transiently expressing human HSD11β1; 200 nM cortisone+500 uM NADPH overnight; cortisone to cortisol by LC/MS-MS; read-out: 11βHSD1 (IC50)
# Lookup of reported IC50 keyed by entry

# molecule, IC50
data = [
    ("O=C(CCc1cn(S(=O)(=O)c2ccccc2)c2ccccc12)N1CCCC2CCCCC21 (centres unmarked)", "> 0.25 µM"),
]

// query Fill in: IC50 of CC(CC(=O)N1CCC(=O)C2CCCCC21)c1c[nH]c2cccc(Cl)c12 (centres unmarked) is ___
// result < 0.1 µM

// query Fill in: IC50 of Cc1cccc2c1c(CCC(=O)N1CC(C)(C)OC3CCCCC31)cn2C (centres unmarked) is ___
// result > 0.25 µM

// query Fill in: IC50 of CC(CC(=O)N1CCCC2C(C(=O)O)CCCC21)c1cn(C)c2cccc(C3CC3)c12 (centres unmarked) [Compound 204] is ___
// result < 0.1 µM

// query Fill in: IC50 of O=C(CCc1c[nH]c2ccccc12)N1CCCCC2CCCCC21 (centres unmarked) is ___
// result > 0.25 µM

// query Fill in: IC50 of CC(CC(=O)N1CCCC2C(C(=O)O)CCCC21)c1cn(C)c2cccc(-c3ccc(F)o3)c12 (centres unmarked) is ___
// result < 0.1 µM

* * *

# Lookup of reported pIC50 keyed by entry
Target: human full length HSD11 β 1 (Homo sapiens, UniProt P28845)
Construct: transient expression of human full length HSD11 β 1 expression vector; host or cells: CHO cells (transient transfection)
Assay: In Vitro HSD11β1 Inhibition Assay
Type: cell-based
Conditions: CHO cells transiently expressing human HSD11β1; 200 nM cortisone+500 uM NADPH overnight; cortisone to cortisol by LC/MS-MS; read-out: 11βHSD1 (IC50)
pIC50: −log10 of the molar value.

The examples below pair each entry with its known result.
# molecule, pIC50
measured = [
    ("Cc1cccc2c1nnn2C(CC(=O)N1CCCC2CCCCC21)C(C)C (centres unmarked) [Example 172]", "< 6.60"),
    ("CC(CC(=O)N1CCCC2C(C(=O)O)CCCC21)c1c[nH]c2cccc(-c3ccc(F)cc3)c12 (single isomer, unassigned) [Compound 256]", "< 6.60"),
    ("Cc1cccc2[nH]cc(CCC(=O)N3CCCC4CCCCC43)c12 (centres unmarked) [Compound 20]", "> 7.00"),
    ("CC(CC(=O)N1CCCC2C(C(=O)O)CCCC21)c1cn(C)c2cccc(Cl)c12 (centres unmarked) [Compound 209]", "6.70 to 6.82"),
]

// query Fill in: pIC50 of CC(CC(=O)N1CCCC2CCCCC21)c1c[nH]c2cccc(F)c12 (single isomer, unassigned) [Example 123] is ___
// result > 7.00

// query Fill in: pIC50 of CC(CC(=O)N1CCCC2C(C(=O)O)CCCC21)c1c[nH]c2cccc(-c3ccc(F)cc3)c12 (single isomer, unassigned) [Compound 255] is ___
// result > 7.00

// query Fill in: pIC50 of CC(C(=O)N1CCCC2C(C(=O)O)CCCC21)c1c[nH]c2cccc(C3CC3)c12 (centres unmarked) [Compound 267] is ___
// result < 6.60

// query Fill in: pIC50 of CCOC(=O)C12CCCCC1N(C(=O)CC(C)c1nc3ccccc3s1)CCC2 (centres unmarked) [Example 141] is ___
// result < 6.60

* * *

Molecular target: human full length HSD11 β 1 (Homo sapiens)
Construct: transient expression of human full length HSD11 β 1 expression vector; host or cells: CHO cells (transient transfection)
Experiment: In Vitro HSD11β1 Inhibition Assay
Type: cell-based
Settings: CHO cells transiently expressing human HSD11β1; 200 nM cortisone+500 uM NADPH overnight; cortisone to cortisol by LC/MS-MS; read-out: 11βHSD1 (IC50)
pIC50: −log10 of the molar value.
# Lookup of reported pIC50 keyed by entry

# compound, measured_target, observed_property, recorded_value
rows = [
    ("CC(CC(=O)N1CCCC2CCCCC21)c1nc2c(Cl)cccc2s1 (centres unmarked)", "human full length HSD11 β 1 (Homo sapiens)", "pIC50", "> 7.00"),
    ("O=C(CCc1c[nH]c2ccccc12)N1CCOC2CCCCC21 (centres unmarked)", "human full length HSD11 β 1 (Homo sapiens)", "pIC50", "< 6.60"),
]

// query Fill in: pIC50 of O=C(O)C1CCCC2C1CCCN2C(=O)CC(c1ccccc1)c1c[nH]c2cccc(F)c12 (centres unmarked) is ___
// result > 7.00

* * *

# Lookup of reported IC50 keyed by entry
Biological target: human full length HSD11 β 1 (Homo sapiens, UniProt P28845)
Construct: transient expression of human full length HSD11 β 1 expression vector; host or cells: CHO cells (transient transfection)
Test: In Vitro HSD11β1 Inhibition Assay
Assay type: cell-based
Conditions: CHO cells transiently expressing human HSD11β1; 200 nM cortisone+500 uM NADPH overnight; cortisone to cortisol by LC/MS-MS; read-out: 11βHSD1 (IC50)
Description: In Vitro HSD11β1 Inhibition Assay: CHO cells were maintained in Dulbecco's modified Eagle's medium/nutrient mixture F-12 containing 5% fetal bovine serum (v/v) and 2 mM glutamine. Cells were cultured at 37° C. with 5% CO2. […] The enzymatic activity or inhibition of enzyme activity was measured by estimating the conversion of cortisone to cortisol by LC/MS-MS method. The IC50 in nM was calculated from an 8 point log scale of concentration versus inhibition.

// query Fill in: IC50 of O=C(O)C1CCN(C(=O)CCc2c[nH]c3ccccc23)C2CCCCC12 (centres unmarked) is ___
// result > 250 nM

* * *

Target: human full length HSD11 β 1 (Homo sapiens, UniProt P28845)
Construct: transient expression of human full length HSD11 β 1 expression vector; host or cells: CHO cells (transient transfection)
Assay: In Vitro HSD11β1 Inhibition Assay
Assay type: cell-based
Conditions: CHO cells transiently expressing human HSD11β1; 200 nM cortisone+500 uM NADPH overnight; cortisone to cortisol by LC/MS-MS; read-out: 11βHSD1 (IC50)
observed_property: IC50

# compound, measured_target, IC50
records = [
    ("Cc1cccc2c1nnn2C(C)CC(=O)N1CCC(C(=O)O)C2CCCCC21 (stereo not drawn)", "human full length HSD11 β 1 (Homo sapiens, UniProt P28845)", "> 250 nM"),
]

// query Fill in: IC50 of CC(CC(=O)N1CCCC2CCCCC21)n1nc2cccc(Cl)c2n1 (stereo not drawn) is ___
// result < 100 nM

// query Fill in: IC50 of CC1CCN(C(=O)CCc2c[nH]c3ccccc23)C2CCCCC12 (stereo not drawn) is ___
// result > 250 nM

// query Fill in: IC50 of CC(CC(=O)N1CCCC2(C(=O)O)CCCCC12)c1c[nH]c2cccc(Cl)c12 (stereo not drawn) is ___
// result > 250 nM

// query Fill in: IC50 of N#CC(Cc1c[nH]c2ccccc12)C(=O)N1CCCC2CCCCC21 (stereo not drawn) is ___
// result > 250 nM

// query Fill in: IC50 of CO/N=C1/CCN(C(=O)CCc2c[nH]c3ccccc23)C2CCCCC12 (stereo not drawn) is ___
// result > 250 nM

// query Fill in: IC50 of CC12CCCCC1N(C(=O)CCc1c[nH]c3ccccc13)CCC2 (single isomer, unassigned) [Compound 56] is ___
// result 150 to 200 nM

// query Fill in: IC50 of CC(CC(=O)N1CCCC2CCCCC21)c1c[nH]c2cccc(-c3ccc(C(=O)O)o3)c12 (stereo not drawn) is ___
// result > 250 nM

// query Fill in: IC50 of O=C(CCc1nc2ccccc2s1)N1CCCC2CCCCC21 (stereo not drawn) is ___
// result < 100 nM

// query Fill in: IC50 of CC(CC(=O)N1CCCC2C(C(=O)O)CCCC21)c1c[nH]c2cccc(C3CC3)c12 (single isomer, unassigned) [Compound 196] is ___
// result < 100 nM

// query Fill in: IC50 of CC(C)C(CC(=O)N1CCC(C(=O)O)C2CCCCC21)c1c[nH]c2cc(F)ccc12 (single isomer, unassigned) [Example 178] is ___
// result > 250 nM

// query Fill in: IC50 of Cc1cc(-c2cccc3[nH]cc(C(C)CC(=O)N4CCCC5C(C(=O)O)CCCC54)c23)on1 (stereo not drawn) is ___
// result > 250 nM

// query Fill in: IC50 of O=C(CCc1nc2ccccc2s1)N1CC2CCCCC2C1 (stereo not drawn) is ___
// result > 250 nM

// query Fill in: IC50 of CC(CC(=O)N1CCCC2C(C(=O)O)CCCC21)c1c[nH]c2cccc(-c3ccc(F)o3)c12 (single isomer, unassigned) [Compound 248] is ___
// result < 100 nM

// query Fill in: IC50 of CC(C)C(CC(=O)N1CCOC2CCCCC21)c1c[nH]c2ccccc12 (stereo not drawn) is ___
// result > 250 nM

Source: patent US9453014B2
